Recorded values, source ChEMBL document CHEMBL1143199.

Target: Pituitary adenylate cyclase-activating polypeptide type I receptor (Homo sapiens)
Assay: Displacement of [125I]PACAP27 from PAC1R expressed in HEK293f cells at 3 uM
Format: cell-based
Sequence (P41586 21-468 limits assumed): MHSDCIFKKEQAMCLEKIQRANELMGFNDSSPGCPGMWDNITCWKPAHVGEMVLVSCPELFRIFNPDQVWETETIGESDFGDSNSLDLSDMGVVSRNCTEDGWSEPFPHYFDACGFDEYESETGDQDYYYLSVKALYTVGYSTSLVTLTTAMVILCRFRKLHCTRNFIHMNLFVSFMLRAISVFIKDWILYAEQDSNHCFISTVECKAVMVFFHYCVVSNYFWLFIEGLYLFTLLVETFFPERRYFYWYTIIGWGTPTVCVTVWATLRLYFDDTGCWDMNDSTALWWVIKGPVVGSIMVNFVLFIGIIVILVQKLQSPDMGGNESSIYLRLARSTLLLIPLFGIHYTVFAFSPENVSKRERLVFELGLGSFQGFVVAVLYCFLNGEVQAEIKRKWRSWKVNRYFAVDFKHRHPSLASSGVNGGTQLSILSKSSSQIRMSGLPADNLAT
PROPERTY_NAME: Activity (%)

COc1cc(C(=O)N/N=C/c2cc(OC)c(OCc3ccc(C(C)C)cc3)c(OC)c2)ccc1O: 44
COc1cc(CNNC(=O)c2ccc(O)c(Cl)c2)cc(OC)c1OCc1ccc(C(C)C)cc1: 46
CNC(=O)c1ccc(COc2ccc(/C=N/NC(=O)c3ccc(O)c(Cl)c3)cc2OC)cc1: 36

---

Target: Pituitary adenylate cyclase-activating polypeptide type I receptor (Homo sapiens, UniProt P41586)
PROPERTY_NAME: Ki (nM)

COc1cc(/C=N/NC(=O)c2ccc(O)c(Cl)c2)cc(OCc2ccc(C(C)C)cc2)c1OC: 152

I: COc1cc(/C=N/NC(=O)c2ccc(O)c(Cl)c2)cc(OC)c1OCc1ccc(C(F)(F)F)cc1
II: COc1cc(/C=N/NC(=O)c2ccc(O)c(Cl)c2)ccc1OCc1cccc(C(F)(F)F)c1
III: O=C(N/N=C/c1cccc(COc2cccc(C(F)(F)F)c2)c1)c1ccc(O)c(Cl)c1
Request: List items by Ki in falling order. Sort and list the labels as requested.
Response: II, III, I
(II: 404 nM, III: 274 nM, I: 140 nM)

---

Molecular target: Pituitary adenylate cyclase-activating polypeptide type I receptor (Homo sapiens)
Test: Displacement of [125I]PACAP27 from PAC1R expressed in HEK293f cells at 3 uM
Type: cell-based
PROPERTY_NAME: Activity (%)

These solved cases illustrate the format of a correct answer.
O=C(N/N=C/c1ccc(OCc2ccc(C(F)(F)F)cc2)cc1)c1ccc(O)c(Cl)c1: 43
COc1cc(/C=N/NC(=O)c2ccc(O)c(Cl)c2)ccc1OCc1ccc(C(F)(F)F)cc1: 50
COc1cc(/C=N/NC(=O)c2ccc(O)c(Cl)c2)cc(OC)c1OCc1ccc(NC(C)=O)cc1: 43
COc1cc(/C=N/NC(=O)c2ccc(O)cc2)cc(OC)c1OCc1ccc(C(C)C)cc1: 22
COc1cc(C(=O)NNC(=O)c2ccc(O)c(Cl)c2)cc(OC)c1OCc1ccc(C(C)C)cc1: 40

1: COc1cc(/C=N/NC(=O)c2ccc(O)c(Cl)c2)ccc1OCc1ccc(NC(C)=O)cc1
2: O=C(N/N=C/c1cccc2c1ccn2Cc1ccc(OCc2ccccc2)cc1)c1ccc(O)c(Cl)c1
Request: Field: lower recorded Activity (choose 1 or 2 ) Bench note: the answer is the label of the chosen record.
Response: 1

---

# Ki measurements, system: UniProt P41586
PROPERTY_NAME: Ki (nM)

COc1cc(/C=N/NC(=O)c2ccc(O)c(Cl)c2)cc(OC)c1OCc1ccc(C(C)C)cc1: 56
O=C(N/N=C/c1cccc(OCc2cccc(C(F)(F)F)c2)c1)c1ccc(O)c(Cl)c1: 554
O=C(N/N=C/c1cccc(COc2ccc(C(F)(F)F)cc2)c1)c1ccc(O)c(Cl)c1: 241
O=C(N/N=C/c1cccc2c1ccn2Cc1cccc(C(F)(F)F)c1)c1ccc(O)c(Cl)c1: 85
O=C(N/N=C/c1ccc(OCc2cccc(C(F)(F)F)c2)cc1)c1ccc(O)c(Cl)c1: 537

1: COc1cc(/C=N/NC(=O)c2ccc(O)c(Cl)c2)cc(OC)c1OCc1cccc(C(F)(F)F)c1
2: O=C(N/N=C/c1ccc(OCc2ccccc2)cc1)c1ccc(O)c(Cl)c1
Request: Could you determine which record has the numerically smaller Ki? Candidates: 1 and 2 Answer with the label corresponding to your selection.
Response: 1
